target: recombinant cytoplasmic domain of HER-2 (Homo sapiens, UniProt P04626); construct: In a cell-free autophosphorylation assay using the recombinant cytoplasmic domain of HER-2; assay: Cell-free autophosphorylation kinase assay (ELISA), HER-2; format: biochemical; conditions: HER-2 enzyme activity reduced by 50% (IC50), span over the three inhibitors
Sequence (P04626 676-1255 limits assumed): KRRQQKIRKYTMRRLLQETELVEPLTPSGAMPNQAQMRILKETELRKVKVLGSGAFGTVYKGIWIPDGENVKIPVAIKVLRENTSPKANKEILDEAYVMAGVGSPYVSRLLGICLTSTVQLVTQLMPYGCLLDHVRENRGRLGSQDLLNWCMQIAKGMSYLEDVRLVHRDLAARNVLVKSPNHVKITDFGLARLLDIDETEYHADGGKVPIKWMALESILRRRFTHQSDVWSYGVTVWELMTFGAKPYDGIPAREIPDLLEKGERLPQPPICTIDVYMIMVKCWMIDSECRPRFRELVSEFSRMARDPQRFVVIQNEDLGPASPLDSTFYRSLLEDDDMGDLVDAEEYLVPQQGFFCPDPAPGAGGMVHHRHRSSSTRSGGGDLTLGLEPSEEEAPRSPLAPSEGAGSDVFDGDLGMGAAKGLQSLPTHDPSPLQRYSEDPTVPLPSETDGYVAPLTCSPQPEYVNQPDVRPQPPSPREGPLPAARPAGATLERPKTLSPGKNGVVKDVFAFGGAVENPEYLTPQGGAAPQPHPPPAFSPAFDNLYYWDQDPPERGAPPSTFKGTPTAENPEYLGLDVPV
pIC50: −log10 of the molar value.
Would you mind telling me the reported pIC50 of each entry?

Lookup: Which pIC50 is reported for this compound? CCOc1cc2ncc(C#N)c(Nc3ccc(OCc4cccc(F)c4)c(Cl)c3)c2cc1NC(=O)/C=C/CN(C)C
Found: 7.19 to 7.48

Lookup: Which pIC50 is reported for this compound? CCOc1cc2ncc(C#N)c(Nc3ccc(OCc4ccccc4)c(Cl)c3)c2cc1NC(=O)/C=C/CN(C)C
Found: 7.19 to 7.48

* * *

Would you mind telling me the reported CELL IC50 SW620 of each entry?
tested on: SW620 cells; assay: Cell proliferation assay (SRB), SW620; assay type: cell-based; conditions: EGFR −, Her-2 −; 2 days, SRB
Give just the number in µg/mL; leave the unit off.

Lookup: Which CELL IC50 SW620 is reported for this molecule? COc1cc2ncc(C#N)c(Nc3ccc(Sc4nc5ccccc5c(=O)[nH]4)c(Cl)c3)c2cc1N
Found: 4.66

Lookup: Which CELL IC50 SW620 is reported for this molecule? COc1cc2ncc(C#N)c(Nc3ccc(N(Cc4cccnc4)C(C)=O)c(Cl)c3)c2cc1NC(=O)/C=C/CN(C)C
Found: 1.64

Lookup: Which CELL IC50 SW620 is reported for this molecule? CCOc1cc2ncc(C#N)c(Nc3ccc(F)c(Cl)c3)c2cc1NC(=O)C=CCN(C)C
Found: 0.32

Lookup: Which CELL IC50 SW620 is reported for this molecule? CCOc1cc2ncc(C#N)c(Nc3ccc4c(c3)S(=O)(=O)C=C4)c2cc1OCC
Found: 0.146

Lookup: Which CELL IC50 SW620 is reported for this molecule? COc1cc2ncc(C#N)c(Nc3ccc(-n4ccnc4)c(Cl)c3)c2cc1[N+](=O)[O-]
Found: 1.66

Lookup: Which CELL IC50 SW620 is reported for this molecule? COc1cc2ncc(C#N)c(Nc3ccc(N(Cc4cccnc4)C(C)=O)c(Cl)c3)c2cc1[N+](=O)[O-]
Found: 2.57

Lookup: Which CELL IC50 SW620 is reported for this molecule? COc1cc2ncc(C#N)c(Nc3ccc(-n4ccnc4)c(Cl)c3)c2cc1N
Found: 5.99

* * *

target: Her-2 (Homo sapiens, UniProt P04626); construct: For Her-2 and EGFR phosphorylation assays, cells (BT474 and A431, respectively) were incubated with various concentrations of compound; endogenous in cells; host or cells: BT474; assay: Her-2 receptor phosphorylation in BT474 cells (immunoblot); assay type: cell-based; details: ligand-independent receptor phosphorylation decreased by 50% (IC50) in BT474 cells, span over the three compounds
Sequence (P04626 23-1255): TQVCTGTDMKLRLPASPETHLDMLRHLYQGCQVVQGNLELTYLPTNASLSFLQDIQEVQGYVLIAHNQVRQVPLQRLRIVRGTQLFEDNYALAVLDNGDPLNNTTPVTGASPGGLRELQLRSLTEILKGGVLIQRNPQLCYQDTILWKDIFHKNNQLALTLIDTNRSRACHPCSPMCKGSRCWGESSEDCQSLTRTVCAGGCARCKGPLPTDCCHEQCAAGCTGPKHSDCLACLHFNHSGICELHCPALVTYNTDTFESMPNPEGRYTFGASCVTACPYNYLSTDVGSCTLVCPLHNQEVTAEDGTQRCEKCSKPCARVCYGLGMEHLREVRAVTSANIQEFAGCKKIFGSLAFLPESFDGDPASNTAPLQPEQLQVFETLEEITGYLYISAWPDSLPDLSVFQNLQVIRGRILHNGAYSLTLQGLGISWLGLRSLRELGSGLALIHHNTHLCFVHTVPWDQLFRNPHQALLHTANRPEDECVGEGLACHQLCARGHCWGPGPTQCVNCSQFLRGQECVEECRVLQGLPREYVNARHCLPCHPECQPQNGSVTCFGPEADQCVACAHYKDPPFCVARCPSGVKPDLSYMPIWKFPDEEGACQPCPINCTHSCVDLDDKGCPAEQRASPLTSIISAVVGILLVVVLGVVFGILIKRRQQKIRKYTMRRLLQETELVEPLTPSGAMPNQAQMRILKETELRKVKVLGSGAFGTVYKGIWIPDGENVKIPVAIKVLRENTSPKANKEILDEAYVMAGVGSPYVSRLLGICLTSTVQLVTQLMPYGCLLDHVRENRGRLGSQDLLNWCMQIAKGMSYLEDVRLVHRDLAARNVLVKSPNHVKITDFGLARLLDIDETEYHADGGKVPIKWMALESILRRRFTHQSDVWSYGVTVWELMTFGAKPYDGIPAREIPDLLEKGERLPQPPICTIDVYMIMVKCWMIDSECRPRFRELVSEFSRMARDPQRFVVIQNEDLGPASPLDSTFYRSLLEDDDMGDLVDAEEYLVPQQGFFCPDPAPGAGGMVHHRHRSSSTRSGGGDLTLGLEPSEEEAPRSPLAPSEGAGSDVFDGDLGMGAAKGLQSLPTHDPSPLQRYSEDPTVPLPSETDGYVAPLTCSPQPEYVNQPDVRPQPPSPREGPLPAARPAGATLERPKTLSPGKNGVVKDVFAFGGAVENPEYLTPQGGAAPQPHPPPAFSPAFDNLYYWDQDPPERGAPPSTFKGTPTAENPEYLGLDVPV
Would you mind telling me the reported IC50 of each entry?

Lookup: Which IC50 is reported for this compound? CCOc1cc2ncc(C#N)c(Nc3ccc(OCc4ccccc4)c(Cl)c3)c2cc1NC(=O)/C=C/CN(C)C [Example 1]
Found: 5 to 23 nM

Lookup: Which IC50 is reported for this compound? CCOc1cc2ncc(C#N)c(Nc3ccc(OCc4cccc(F)c4)c(Cl)c3)c2cc1NC(=O)/C=C/CN(C)C [Example 3]
Found: 5 to 23 nM

Values compiled from patent US7982043B2.
